System: HEK-293T
assay.protocol: Multiplex assay against HEK293T;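 as to Population Tubulin-Different-Phenotype (%): share of the cells with healthy nuclei that show this phenotype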
Assay type: toxicity, cell-based
study.conditions: human, 48 h, 10 µM, compound concentration 10 uM, replicate 1
We label by threshold. Values of Population Tubulin-Different-Phenotype (%) strictly beneath 50% are satisfied. Values of 50% and up are not satisfied.

Consider the worked cases shown below.
Quick check: does OC1(c2ccc(Cl)cc2)CCN(Cc2c[nH]c3ccccc23)CC1 have Population Tubulin-Different-Phenotype (%) under 50%?
not satisfied

Quick check: does NC(=O)Nc1cc(-c2cccc(F)c2)sc1C(=O)N[C@H]1CCCNC1 have Population Tubulin-Different-Phenotype (%) under 50%?
satisfied

Quick check: does Cn1cc(-c2[nH]c3cc(NC(=O)[C@H](N)C4CCCCC4)cc4c3c2C=NNC4=O)cn1 have Population Tubulin-Different-Phenotype (%) under 50%?
not satisfied

Quick check: does CN1CCN(c2ccc(OC(F)(F)F)c(Nc3ncc4c(n3)-c3c(c(C(N)=O)nn3CCO)CC4)c2)CC1 have Population Tubulin-Different-Phenotype (%) under 50%?
not satisfied

Read the next record carefully.
Quick check: does c1cn2cc(-c3ccc4cn[nH]c4c3)nc(Nc3ccc(N4CCOCC4)cc3)c2n1 have Population Tubulin-Different-Phenotype (%) under 50%?
not satisfied

----------
In this section we review reported Population Pyknosed Nuclei (%) values for a set of compounds.
Test system: Fibroblast
assay.protocol: Multiplex assay against human fibroblast
Format: toxicity, cell-based
study.conditions: 24 h, 10 µM, compound concentration 10 uM, replicate 1
Reply with just the number (in %).

Previously resolved entries follow.
Specify Population Pyknosed Nuclei (%) for CN1CCN(CCOc2cc(OC3CCOCC3)c3c(Nc4c(Cl)ccc5c4OCO5)ncnc3c2)CC1 and stop.
10

Specify Population Pyknosed Nuclei (%) for Cl.N#Cc1ccc2[nH]cc(CCCCN3CCN(c4ccc5oc(C(N)=O)cc5c4)CC3)c2c1 [VILAZODONE HYDROCHLORIDE] and stop.
53

Specify Population Pyknosed Nuclei (%) for Cn1cncc1[C@@](O)(COc1ccc(C#N)cc1-c1ccc(OC(F)(F)F)cc1)c1ccc(C#N)cc1 and stop.
14

***
Specify Population Pyknosed Nuclei (%) for CN1CCC[C@@H]1CCO[C@](C)(c1ccccc1)c1ccc(Cl)cc1.O=C(O)/C=C/C(=O)O [CLEMASTINE FUMARATE] and stop.
17

Specify Population Pyknosed Nuclei (%) for Cc1[nH]c(/C=C2\C(=O)Nc3ccc(S(=O)(=O)N(C)c4cccc(Cl)c4)cc32)c(C)c1C(=O)N1CCN(C)CC1 and stop.
12

----------
Tested on: HEK-293T
assay.protocol: Multiplex assay against HEK293T
Assay type: toxicity, cell-based
study.conditions: human, 48 h, 10 µM, compound concentration 10 uM, replicate 1
reported.property: Population Membrane Permeable-Phenotype (%)
Reply with just the number (in %).

Previously resolved entries follow.
Specify Population Membrane Permeable-Phenotype (%) for CCOCCn1cc(C(=O)Nc2ccc(-n3nc(-c4cccnc4)cc3C(F)(F)F)cn2)ccc1=O and stop.
2

Specify Population Membrane Permeable-Phenotype (%) for c1cn2cc(-c3ccc4cn[nH]c4c3)nc(Nc3ccc(N4CCOCC4)cc3)c2n1 and stop.
6

Specify Population Membrane Permeable-Phenotype (%) for COc1cc(-n2cnc3cc(-c4ccc(Cl)cc4)sc3c2=O)ccc1OCCN1CCCC1 and stop.
0

Now examine the next entry.
Specify Population Membrane Permeable-Phenotype (%) for CNc1nc(NCc2ccc(NS(C)(=O)=O)cc2Cl)cc(-c2ccccn2)n1 and stop.
2

----------
Test system: HEK-293T
assay.protocol: Multiplex assay against HEK293T
Assay type: toxicity, cell-based
study.conditions: human, 12 h, 10 µM, compound concentration 10 uM, replicate 2
reported.property: Population Membrane Permeable-Phenotype (%)
Reply with just the number (in %).

Previously resolved entries follow.
Specify Population Membrane Permeable-Phenotype (%) for COc1cc(-n2cnc3cc(-c4ccc(Cl)cc4)sc3c2=O)ccc1OCCN1CCCC1 and stop.
33

Specify Population Membrane Permeable-Phenotype (%) for CN(C)C(=O)/C(C#N)=C/c1ccc(-c2nc3cnc4[nH]ccc4c3n2C2CCCCC2)o1 and stop.
15

Specify Population Membrane Permeable-Phenotype (%) for C=CC(=O)Nc1ccc2ncnc(Nc3ccc(OCc4cccc(F)c4)c(Cl)c3)c2c1.Cc1ccc(S(=O)(=O)O)cc1 and stop.
0

Now examine the next entry.
Specify Population Membrane Permeable-Phenotype (%) for COc1ncc(-c2ccc3nccc(-c4ccnnc4)c3c2)cc1NS(=O)(=O)c1ccc(F)cc1F [OMIPALISIB] and stop.
5

----------
Tested on: U2OS
assay.protocol: Multiplex assay against U2OS
Assay type: toxicity, cell-based
study.conditions: human, 48 h, 10 µM, compound concentration 10 uM, replicate 2
In this section we review reported Population Healthy Nuclei (%) values for a set of compounds.
Reply with just the number (in %).

Previously resolved entries follow.
Specify Population Healthy Nuclei (%) for COc1cc(-n2cnc3cc(-c4ccc(Cl)cc4)sc3c2=O)ccc1OCCN1CCCC1 and stop.
59

Specify Population Healthy Nuclei (%) for NC(=O)Nc1cc(-c2cccc(F)c2)sc1C(=O)N[C@H]1CCCNC1 [AZD-7762] and stop.
44

Specify Population Healthy Nuclei (%) for CN(C)CC#Cc1ccc(OCCCc2sc(N3CCc4cccc(C(=O)Nc5nc6ccccc6s5)c4C3)nc2C(=O)O)c(F)c1 [A-1155463] and stop.
35

Specify Population Healthy Nuclei (%) for C=CC(=O)Nc1cccc(C(=O)Nc2ccc(Nc3cc(-c4[nH]c(SC)nc4C)ccn3)cc2)c1 and stop.
80

Specify Population Healthy Nuclei (%) for C[C@@H](NCCCc1cccc(C(F)(F)F)c1)c1cccc2ccccc12.Cl [CINACALCET HYDROCHLORIDE] and stop.
35

Specify Population Healthy Nuclei (%) for c1cn2cc(-c3ccc4cn[nH]c4c3)nc(Nc3ccc(N4CCOCC4)cc3)c2n1 [ENTOSPLETINIB] and stop.
2

Specify Population Healthy Nuclei (%) for CNCc1ccccc1-c1csc([C@H](C)Nc2nc(C)nc3cc(OC)c(OC)cc23)c1 [BAY-294] and stop.
18

Specify Population Healthy Nuclei (%) for O=C1NCN(c2ccccc2)C12CCN(CCCOc1ccc(F)cc1)CC2 [SPIRAMIDE] and stop.
78

***
Specify Population Healthy Nuclei (%) for CN(C)C(=O)/C(C#N)=C/c1ccc(-c2nc3cnc4[nH]ccc4c3n2C2CCCCC2)o1 and stop.
49

Specify Population Healthy Nuclei (%) for Cl.N#Cc1ccc2[nH]cc(CCCCN3CCN(c4ccc5oc(C(N)=O)cc5c4)CC3)c2c1 [VILAZODONE HYDROCHLORIDE] and stop.
5

----------
In this section we review reported Population Membrane Permeable-Phenotype (%) values for a set of molecules.
Tested on: U2OS
assay.protocol: Multiplex assay against U2OS
Type: toxicity, cell-based
study.conditions: human, 48 h, 1 µM, compound concentration 1 uM, replicate 2
Reply with just the number (in %).

Previously resolved entries follow.
// fetch Population Membrane Permeable-Phenotype (%) for C[C@@H](NCCCc1cccc(C(F)(F)F)c1)c1cccc2ccccc12.Cl [CINACALCET HYDROCHLORIDE] ; system: U2OS
8

// fetch Population Membrane Permeable-Phenotype (%) for CC(C)NCC(O)COc1ccc(CCOCC2CC2)cc1.Cl (stereo unspecified) [BETAXOLOL HYDROCHLORIDE] ; system: U2OS
5

// fetch Population Membrane Permeable-Phenotype (%) for C=CC(=O)Nc1cccc(C(=O)Nc2ccc(Nc3cc(-c4[nH]c(SC)nc4C)ccn3)cc2)c1 ; system: U2OS
6

// fetch Population Membrane Permeable-Phenotype (%) for OC1(c2ccc(Cl)cc2)CCN(Cc2c[nH]c3ccccc23)CC1 ; system: U2OS
3

// fetch Population Membrane Permeable-Phenotype (%) for CN1CCN(CCOc2cc(OC3CCOCC3)c3c(Nc4c(Cl)ccc5c4OCO5)ncnc3c2)CC1 [SARACATINIB] ; system: U2OS
13

Now examine the next entry.
// fetch Population Membrane Permeable-Phenotype (%) for Cc1c(-c2ccc(O)cc2)n(Cc2ccc(OCCN3CCCCCC3)cc2)c2ccc(O)cc12 [BAZEDOXIFENE] ; system: U2OS
8

----------
In this section we review reported Population Membrane Permeable-Phenotype (%) values for a set of compounds.
Test system: U2OS
assay.protocol: Multiplex assay against U2OS
Type: toxicity, cell-based
study.conditions: human, 12 h, 1 µM, compound concentration 1 uM, replicate 1
Reply with just the number (in %).

Specify Population Membrane Permeable-Phenotype (%) for CCN(CC)CCCCNc1ncc2cc(-c3cc(OC)cc(OC)c3)c(NC(=O)NC(C)(C)C)nc2n1 and stop.
66

Specify Population Membrane Permeable-Phenotype (%) for C=CC(=O)Nc1cccc(C(=O)Nc2ccc(Nc3cc(-c4[nH]c(SC)nc4C)ccn3)cc2)c1 and stop.
4

Specify Population Membrane Permeable-Phenotype (%) for O=C1NCN(c2ccccc2)C12CCN(CCCOc1ccc(F)cc1)CC2 [SPIRAMIDE] and stop.
1

Specify Population Membrane Permeable-Phenotype (%) for CN1CCCC(n2nc(Cc3ccc(Cl)cc3)c3ccccc3c2=O)CC1.Cl (stereo not given) [AZELASTINE HYDROCHLORIDE] and stop.
11

Now examine the next entry.
Specify Population Membrane Permeable-Phenotype (%) for Cc1nc(-c2cn3c(n2)-c2ccc(-c4cnn(C(C)(C)C(N)=O)c4)cc2OCC3)n(C(C)C)n1 and stop.
16
